# STUDY TARGET: human TRPA1 channel (Homo sapiens (Human), UniProt O75762)
# Sequence (O75762 whole entry): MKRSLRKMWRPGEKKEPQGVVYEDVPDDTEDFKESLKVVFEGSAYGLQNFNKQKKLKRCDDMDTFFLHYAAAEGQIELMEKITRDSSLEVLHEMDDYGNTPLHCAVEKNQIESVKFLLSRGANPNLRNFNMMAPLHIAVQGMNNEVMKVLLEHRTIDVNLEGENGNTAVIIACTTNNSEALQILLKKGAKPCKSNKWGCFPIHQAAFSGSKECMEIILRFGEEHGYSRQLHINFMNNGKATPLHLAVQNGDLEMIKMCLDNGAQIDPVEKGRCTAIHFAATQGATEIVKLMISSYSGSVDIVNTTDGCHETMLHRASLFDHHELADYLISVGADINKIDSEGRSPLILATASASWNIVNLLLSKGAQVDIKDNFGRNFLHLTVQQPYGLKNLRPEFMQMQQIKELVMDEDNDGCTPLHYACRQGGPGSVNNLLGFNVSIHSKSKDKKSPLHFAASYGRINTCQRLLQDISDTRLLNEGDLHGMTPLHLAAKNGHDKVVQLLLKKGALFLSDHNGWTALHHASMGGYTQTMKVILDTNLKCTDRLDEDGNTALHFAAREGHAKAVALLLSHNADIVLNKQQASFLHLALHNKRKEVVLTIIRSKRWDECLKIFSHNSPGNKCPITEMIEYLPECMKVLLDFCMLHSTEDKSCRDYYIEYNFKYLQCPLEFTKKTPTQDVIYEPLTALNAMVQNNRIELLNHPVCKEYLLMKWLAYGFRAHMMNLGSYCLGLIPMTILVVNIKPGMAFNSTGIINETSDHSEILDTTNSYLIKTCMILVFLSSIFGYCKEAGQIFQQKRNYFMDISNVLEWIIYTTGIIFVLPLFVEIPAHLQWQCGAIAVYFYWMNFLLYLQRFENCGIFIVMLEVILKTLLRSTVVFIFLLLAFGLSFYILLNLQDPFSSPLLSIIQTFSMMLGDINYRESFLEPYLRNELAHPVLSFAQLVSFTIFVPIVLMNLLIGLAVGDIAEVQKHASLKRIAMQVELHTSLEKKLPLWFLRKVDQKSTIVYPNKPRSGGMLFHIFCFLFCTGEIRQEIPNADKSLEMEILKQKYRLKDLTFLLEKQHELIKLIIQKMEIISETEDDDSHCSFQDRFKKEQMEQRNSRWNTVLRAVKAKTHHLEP
# ASSAY NAME: hTRPA1 CHO Ca2+ FLIPR Tetra assay, block of cinnamaldehyde induced calcium influx
# Type: cell-based
# CONDITION SET: read-out: hTRPA1 IC50 (10 min); CHO cells expressing TRPA1; compounds incubated 10 minutes at room temperature before cinnamaldehyde agonist; Hill coefficient fixed to 1.5
QUANTITY KIND: IC50 (nM)

Cn1cc(-c2cccc(N3C[C@@H]4[C@H](C3)[C@H]4c3noc(Cn4ncc5ncccc5c4=O)n3)c2)cn1; 43

(P) Cn1nnc2ncn(Cc3nc([C@H]4[C@@H]5CN(c6cc(Cl)ccn6)C[C@@H]54)no3)c(=O)c21
(Q) Cn1cnc2ncn(Cc3nc([C@H]4[C@@H]5CN(c6cccc(-c7cccnc7)c6)C[C@@H]54)no3)c(=O)c21
[in] Task for the reader: decide whether P or Q has the larger IC50. Indicate which entry you chose by stating its label.
[out] P
(P: 74.5 nM, Q: 46.3 nM)

---

# STUDY TARGET: human TRPA1 channel (Homo sapiens (Human))
# ASSAY NAME: hTRPA1 CHO Ca2+ FLIPR Tetra assay, block of cinnamaldehyde induced calcium influx
# Assay type: cell-based
# CONDITION SET: read-out: hTRPA1 IC50 (90 min); CHO cells expressing TRPA1; compounds incubated 90 minutes at room temperature before cinnamaldehyde agonist; Hill coefficient fixed to 1.5
QUANTITY KIND: IC50 (µM)

Cn1cnc2ncn(Cc3nc([C@H]4[C@@H]5C=C(c6cc(Cl)ccn6)C[C@@H]54)no3)c(=O)c21 [Example Compound 160]; 0.031

(I) Cn1cnc2ncn(Cc3nc([C@H]4[C@@H]5Oc6c(Cl)cccc6[C@@H]54)no3)c(=O)c21 [Example Compound 186]
(II) Cn1cnc2ncn(Cc3nc([C@H]4[C@@H]5CN(c6cc(Cl)c(F)cc6F)C[C@@H]54)no3)c(=O)c21 [Example Compound 219]
(III) Cn1cnc2ncn(Cc3nc([C@@H]4[C@H]5C=C(c6ccccc6)C[C@H]54)no3)c(=O)c21 [Example Compound 226]
[in] Please list these in order of increasing IC50. Thank you! Put the labels in the requested order and list them out.
[out] III, II, I

---

# STUDY TARGET: human TRPA1 channel (Homo sapiens (Human), UniProt O75762)
# ASSAY NAME: hTRPA1 CHO Ca2+ FLIPR Tetra assay, block of cinnamaldehyde induced calcium influx
# Assay type: cell-based
# CONDITION SET: read-out: hTRPA1 IC50 (10 min); CHO cells expressing TRPA1; compounds incubated 10 minutes at room temperature before cinnamaldehyde agonist; Hill coefficient fixed to 1.5
pIC50: −log10 of the molar value.
QUANTITY KIND: pIC50

Worked set:
Cn1nnc2ncn(Cc3nc([C@H]4[C@@H]5C=C(c6ccccc6)C[C@@H]54)no3)c(=O)c21 [Example Compound 108]; 8.21
O=c1c2ccncc2ncn1Cc1nc([C@H]2[C@@H]3CN(c4ccccc4)C[C@@H]32)no1 [Example Compound 195]; 7.00
Cc1cnn2ncn(Cc3nc([C@H]4[C@@H]5CN(c6ccccc6)C[C@@H]54)no3)c(=O)c12 [Example Compound 95]; 8.09
O=c1c2cccnc2cnn1Cc1nc([C@H]2[C@@H]3CN(c4cc(F)ccn4)C[C@@H]32)no1 [Example Compound 153]; 7.02
Cn1cnc2ncn(Cc3nc([C@H]4[C@@H]5C=C(c6cccnc6)C[C@@H]54)no3)c(=O)c21 [Example Compound 133]; 6.75
O=c1c2cccnc2ncn1Cc1nc([C@H]2C[C@H](Oc3cccc(F)c3)C2)no1 [Example Compound 147]; 6.63
Cc1cccc(N2C[C@@H]3[C@H](C2)[C@H]3c2noc(Cn3cnc4ncn(C)c4c3=O)n2)c1 [Example Compound 224]; 7.15
O=c1c2cccnc2cnn1Cc1nc([C@H]2[C@@H]3CN(c4ccc5ncsc5c4)C[C@@H]32)no1 [Example Compound 279]; 7.95
Cn1cnc2ncn(Cc3nc([C@H]4[C@@H]5CN(c6cc(Cl)c(F)cn6)C[C@@H]54)no3)c(=O)c21 [Example Compound 170]; 6.63
O=c1c2cccnc2cnn1Cc1nc([C@H]2[C@@H]3CN(c4cccc(Cl)c4)C[C@@H]32)no1 [Example Compound 214]; 8.54

(a) Cc1ncn2ncn(Cc3nc([C@H]4[C@@H]5CN(c6cc(Cl)ccn6)C[C@@H]54)no3)c(=O)c12 [Example Compound 116]
(b) Cn1cnc2ncn(Cc3nc([C@H]4[C@@H]5CN(c6cccc(OC(F)F)c6)C[C@@H]54)no3)c(=O)c21 [Example Compound 8]
(c) O=c1c2cccc(=O)n2ccn1Cc1nc([C@@H]2[C@H]3C=C(c4ccccc4)C[C@H]32)no1 [Example Compound 275]
(d) Cc1ccnc2ncn(Cc3nc([C@H]4[C@@H]5CN(c6ccc(Cl)cc6)C[C@@H]54)no3)c(=O)c12 [Example Compound 29]
(e) Cn1cnc2ncn(Cc3nc([C@@H]4[C@H]5C=C(c6ccc7c(cnn7C)c6)C[C@H]54)no3)c(=O)c21 [Example Compound 264]
[in] Please list these in order of increasing pIC50. Thank you! Put the labels in the requested order and list them out.
[out] d, b, a, e, c
(d: 6.54, b: 6.98, a: 7.21, e: 7.54, c: 7.92)

(A) COc1ccc(N2C[C@@H]3[C@H](C2)[C@H]3c2noc(Cn3cnc4ncn(C)c4c3=O)n2)cc1 [Example Compound 35]
(B) O=c1c2cccnc2ncn1Cc1nc([C@H]2C[C@](F)(c3ccc(F)cc3)C2)no1 [Example Compound 207]
[in] // compare measured pIC50 between A and B ; output the lower one Indicate which entry you chose by stating its label.
[out] B
(B: 7.02, A: 7.32)

---

# STUDY TARGET: human TRPA1 channel (Homo sapiens (Human), UniProt O75762)
# ASSAY NAME: hTRPA1 CHO Ca2+ FLIPR Tetra assay, block of cinnamaldehyde induced calcium influx
# Type: cell-based
# CONDITION SET: read-out: hTRPA1 IC50 (10 min); CHO cells expressing TRPA1; compounds incubated 10 minutes at room temperature before cinnamaldehyde agonist; Hill coefficient fixed to 1.5
QUANTITY KIND: IC50 (nM)

Worked set:
Cc1ccnc2ncn(Cc3nc([C@H]4C[C@](O)(c5ccc6ccccc6c5)C4)no3)c(=O)c12 [Example Compound 233]; 38.6
Cc1nn(C)c2ncn(Cc3nc([C@H]4[C@@H]5CN(c6cc(Cl)ccn6)C[C@@H]54)no3)c(=O)c12 [Example Compound 137]; 58.5
Cn1cnc2nnn(Cc3nc([C@H]4[C@@H]5C=C(c6ccccc6)C[C@@H]54)no3)c(=O)c21 [Example Compound 259]; 25.1

(1) Cn1cnc2ncn(Cc3nc([C@@H]4[C@H]5C=C(c6cccc(F)c6)C[C@H]54)no3)c(=O)c21 [Example Compound 115]
(2) Cn1cnc2ncn(Cc3nc([C@H]4[C@@H]5CN(c6ccc(Cl)c(F)c6)C[C@@H]54)no3)c(=O)c21 [Example Compound 229]
(3) O=c1c2cccnc2cnn1Cc1nc([C@H]2[C@@H]3CN(c4ccnc(F)c4)C[C@@H]32)no1 [Example Compound 152]
(4) O=c1c2cccnc2ncn1Cc1nc([C@@H]2[C@H]3C=C(c4cc(Cl)ccn4)C[C@H]32)no1 [Example Compound 162]
[in] Order the items by recorded IC50; the first position goes to the largest value. Put the labels in the requested order and list them out.
[out] 4, 3, 2, 1

---

# STUDY TARGET: human TRPA1 channel (Homo sapiens (Human), UniProt O75762)
# ASSAY NAME: hTRPA1 CHO Ca2+ FLIPR Tetra assay, block of cinnamaldehyde induced calcium influx
# Type: cell-based
# CONDITION SET: read-out: hTRPA1 IC50 (90 min); CHO cells expressing TRPA1; compounds incubated 90 minutes at room temperature before cinnamaldehyde agonist; Hill coefficient fixed to 1.5
QUANTITY KIND: IC50 (nM)

Worked set:
Cn1cnc2ncn(Cc3nc([C@@H]4[C@H]5CC[C@H](Oc6ccccc6)[C@H]54)no3)c(=O)c21; 80
Cn1cnc2ncn(Cc3nc([C@H]4[C@@H]5CN(c6ccc7scnc7c6)C[C@@H]54)no3)c(=O)c21; 41

(a) Cn1cnc2ncn(Cc3nc([C@H]4[C@@H]5CN(c6cc(F)c(Cl)c(F)c6)C[C@@H]54)no3)c(=O)c21
(b) O=c1c2cccc(=O)n2ccn1Cc1nc([C@@H]2[C@H]3C=C(c4ccccc4)C[C@H]32)no1
(c) Cn1cnc2ncn(Cc3nc([C@@H]4[C@H]5C=C(c6ccccc6)[C@@H](O)[C@H]54)no3)c(=O)c21
(d) Cn1cnc2ncn(Cc3nc([C@H]4C[C@H](C(=O)c5cccc(Cl)c5)C4)no3)c(=O)c21
[in] Order the items by recorded IC50; the first position goes to the largest value. Put the labels in the requested order and list them out.
[out] d, c, a, b
(d: 64 nM, c: 40 nM, a: 11 nM, b: 6.5 nM)
